Sourced from patent US20260125454A1

- subject of test: T1, Biotin-huCGRPaSA (human, not fully specified; biotin (position not given))
- T1 construct: exact construct ('aSA') not explained; also called Biotin CGRPaSA; full-length (1-37) CGRP
- T1 peptide: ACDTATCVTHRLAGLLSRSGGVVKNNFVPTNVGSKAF
- procedure text: ELISA, supernatant; relative to chimeric C245
property name: Relative binding activity, % (%)
The figure you give is taken to be in %; do not add the unit.

Example entries begin here.
[[record]]
binder = "hu125 (antibody, V domains shown, 2B8 HC1-2/1F5 LC1-4) VH: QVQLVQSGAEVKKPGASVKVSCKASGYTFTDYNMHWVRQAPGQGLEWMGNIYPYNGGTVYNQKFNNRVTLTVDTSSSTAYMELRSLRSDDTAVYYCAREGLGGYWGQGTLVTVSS VL: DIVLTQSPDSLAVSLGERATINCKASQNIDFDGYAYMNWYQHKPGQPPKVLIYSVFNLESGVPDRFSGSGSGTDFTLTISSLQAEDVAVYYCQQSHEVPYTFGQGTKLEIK"
endpoint_result = 34

[[record]]
binder = "hu136 (antibody, V domains shown, 2B8 HC1-3/1F5 LC1-2) VH: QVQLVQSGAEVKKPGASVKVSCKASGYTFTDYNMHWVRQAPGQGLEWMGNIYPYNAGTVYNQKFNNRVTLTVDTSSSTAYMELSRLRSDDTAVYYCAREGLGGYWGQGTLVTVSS VL: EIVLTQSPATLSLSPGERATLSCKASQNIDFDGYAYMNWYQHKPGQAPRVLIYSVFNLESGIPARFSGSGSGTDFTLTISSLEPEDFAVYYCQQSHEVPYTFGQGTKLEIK"
endpoint_result = 101

[[record]]
binder = "hu208 (antibody, V domains shown, 3H10 HC-1/3H10 LC2-2) VH: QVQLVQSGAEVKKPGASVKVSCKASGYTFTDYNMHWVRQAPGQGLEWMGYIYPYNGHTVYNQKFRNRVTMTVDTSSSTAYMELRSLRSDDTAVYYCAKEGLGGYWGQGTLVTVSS VL: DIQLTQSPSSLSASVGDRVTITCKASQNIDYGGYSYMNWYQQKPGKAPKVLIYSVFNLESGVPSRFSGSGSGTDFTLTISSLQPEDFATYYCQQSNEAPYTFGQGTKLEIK"
endpoint_result = 15


Exam item: # Relative binding activity, % lookup, item hu80 (antibody, V domains shown, 1F5 HC-5/1A2 LC2-2) VH: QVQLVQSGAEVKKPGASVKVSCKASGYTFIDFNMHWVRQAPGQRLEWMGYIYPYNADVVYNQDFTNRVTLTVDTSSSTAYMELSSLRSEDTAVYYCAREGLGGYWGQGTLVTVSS VL: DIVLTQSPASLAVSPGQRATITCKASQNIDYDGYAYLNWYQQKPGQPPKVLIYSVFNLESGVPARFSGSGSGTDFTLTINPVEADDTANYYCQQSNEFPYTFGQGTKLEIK
Marked response: 99

Exam item: # Relative binding activity, % lookup, item hu150 (antibody, V domains shown, 3E5 HC-1/1F5 LC1-3) VH: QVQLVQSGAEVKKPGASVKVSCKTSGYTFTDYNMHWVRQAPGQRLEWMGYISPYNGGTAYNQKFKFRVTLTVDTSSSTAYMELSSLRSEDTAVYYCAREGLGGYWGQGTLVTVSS VL: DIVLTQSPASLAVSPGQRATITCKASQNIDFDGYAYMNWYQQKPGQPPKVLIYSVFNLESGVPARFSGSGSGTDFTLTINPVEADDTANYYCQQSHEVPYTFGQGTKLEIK
Marked response: 64
